# measured on: PIK3CG (human) (UniProt P48736)
# Sequence (P48736 whole entry, looked up): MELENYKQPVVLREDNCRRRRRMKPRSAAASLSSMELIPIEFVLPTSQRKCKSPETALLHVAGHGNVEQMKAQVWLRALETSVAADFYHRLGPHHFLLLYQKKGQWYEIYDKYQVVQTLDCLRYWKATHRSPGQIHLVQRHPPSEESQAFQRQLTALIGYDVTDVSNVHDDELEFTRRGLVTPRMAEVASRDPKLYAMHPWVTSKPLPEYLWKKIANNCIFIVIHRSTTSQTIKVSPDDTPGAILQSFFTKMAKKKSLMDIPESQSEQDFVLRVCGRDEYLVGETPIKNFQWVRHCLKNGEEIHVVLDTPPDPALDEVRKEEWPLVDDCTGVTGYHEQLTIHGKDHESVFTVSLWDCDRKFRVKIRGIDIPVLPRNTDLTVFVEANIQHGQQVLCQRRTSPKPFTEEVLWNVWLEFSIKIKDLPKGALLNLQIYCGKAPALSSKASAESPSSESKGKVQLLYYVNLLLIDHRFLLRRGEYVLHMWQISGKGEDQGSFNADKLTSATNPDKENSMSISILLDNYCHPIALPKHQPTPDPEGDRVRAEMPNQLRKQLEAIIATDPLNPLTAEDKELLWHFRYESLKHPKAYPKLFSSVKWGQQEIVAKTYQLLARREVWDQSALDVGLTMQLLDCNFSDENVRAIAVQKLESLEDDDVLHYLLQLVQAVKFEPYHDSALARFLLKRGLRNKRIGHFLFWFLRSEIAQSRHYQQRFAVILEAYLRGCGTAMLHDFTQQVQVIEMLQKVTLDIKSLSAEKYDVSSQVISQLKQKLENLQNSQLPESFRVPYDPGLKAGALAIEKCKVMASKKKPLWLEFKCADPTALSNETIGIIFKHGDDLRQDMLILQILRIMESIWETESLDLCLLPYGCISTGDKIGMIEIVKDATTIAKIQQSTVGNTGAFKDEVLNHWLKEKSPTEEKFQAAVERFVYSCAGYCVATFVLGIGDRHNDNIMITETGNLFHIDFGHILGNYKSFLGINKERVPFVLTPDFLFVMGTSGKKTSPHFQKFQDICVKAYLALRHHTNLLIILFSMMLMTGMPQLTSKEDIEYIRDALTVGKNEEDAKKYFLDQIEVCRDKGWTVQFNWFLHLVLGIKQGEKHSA
# experiment summary: KINOMEscan competition binding
# condition details: compound 10.0 µM
Each entry below carries its recorded kinase still bound, per cent of control.
Respond numerically; units are % and should not be typed.

Quote PIK3CG (human) (UniProt P48736) kinase still bound, per cent of control for entry "CN(C)C/C=C/C(=O)Nc1cccc(Nc2ncc3c(n2)N(C)c2ccccc2C(=O)N3C)c1" .
0

----------
# Test system: ABL1 (human), P00519 [Q252H]
# experiment summary: KINOMEscan competition binding
# condition details: compound 10.0 µM
readout label: kinase still bound, per cent of control (%)
Just the number in %, nothing appended.

Check out these entries, answers already filled in.
molecule	measured on	kinase still bound, per cent of control, %
C=CC(=O)Nc1cccc(Oc2nc(Nc3ccc(N4CCN(C)CC4)cc3OC)ncc2Cl)c1	ABL1 (human), P00519 [Q252H]	100
Cn1c(=O)n(-c2ccc(C(C)(C)C#N)cc2)c2c3cc(-c4cnc5ccccc5c4)ccc3ncc21	ABL1 (human), P00519 [Q252H]	100

Give kinase still bound, per cent of control for "C=CC(=O)Nc1ccc(CN(C(=O)Nc2c(Cl)c(OC)cc(OC)c2Cl)c2cc(Nc3ccc(N4CCN(C)CC4)cc3)ncn2)cc1"
14

Give the value of kinase still bound, per cent of control reported for the following: COc1cc(C(=O)NC2CCN(C)CC2)ccc1Nc1ncc2c(n1)N(C1CCCC1)C(C)CC(=O)N2C (centres undefined)
100

----------
# Tested on: PIK3CA (human), P42336 [I800L]
# Sequence (P42336 whole entry I800L, looked up): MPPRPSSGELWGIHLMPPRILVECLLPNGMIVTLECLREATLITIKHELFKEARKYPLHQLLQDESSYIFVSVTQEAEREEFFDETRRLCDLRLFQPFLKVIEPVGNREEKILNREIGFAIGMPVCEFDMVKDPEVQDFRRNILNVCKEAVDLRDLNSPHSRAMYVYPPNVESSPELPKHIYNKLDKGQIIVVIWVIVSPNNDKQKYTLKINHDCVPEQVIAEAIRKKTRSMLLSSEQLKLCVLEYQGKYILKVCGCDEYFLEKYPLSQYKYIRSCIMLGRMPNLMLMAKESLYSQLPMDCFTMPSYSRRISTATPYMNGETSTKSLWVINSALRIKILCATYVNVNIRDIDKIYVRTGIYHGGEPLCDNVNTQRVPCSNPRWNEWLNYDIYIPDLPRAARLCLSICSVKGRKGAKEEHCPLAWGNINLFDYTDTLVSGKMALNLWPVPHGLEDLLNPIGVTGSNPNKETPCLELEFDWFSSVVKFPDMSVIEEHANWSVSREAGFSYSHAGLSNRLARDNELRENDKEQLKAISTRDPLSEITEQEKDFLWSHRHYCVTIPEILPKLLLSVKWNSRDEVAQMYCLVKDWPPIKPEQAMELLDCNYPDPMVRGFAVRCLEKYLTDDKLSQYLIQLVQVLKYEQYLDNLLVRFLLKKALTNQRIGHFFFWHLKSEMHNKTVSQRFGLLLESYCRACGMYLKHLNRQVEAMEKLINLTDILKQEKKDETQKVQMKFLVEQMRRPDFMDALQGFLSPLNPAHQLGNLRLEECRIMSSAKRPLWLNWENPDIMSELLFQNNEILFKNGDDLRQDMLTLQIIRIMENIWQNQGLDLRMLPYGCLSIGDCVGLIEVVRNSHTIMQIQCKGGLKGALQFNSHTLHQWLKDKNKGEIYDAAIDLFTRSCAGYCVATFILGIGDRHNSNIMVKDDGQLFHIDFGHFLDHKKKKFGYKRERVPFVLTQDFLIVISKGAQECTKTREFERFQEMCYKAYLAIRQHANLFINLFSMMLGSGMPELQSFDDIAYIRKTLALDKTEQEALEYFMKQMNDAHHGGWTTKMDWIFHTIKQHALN
# experiment summary: KINOMEscan competition binding
# condition details: compound 10.0 µM
readout label: kinase still bound, per cent of control (%)
Field: numeric (%). Do not append units.

Consider the following illustrative entries.
compound	value measured
CC1=C(C(=O)Nc2cc3cn[nH]c3cc2F)C(c2ccc(C(F)(F)F)cc2)CC(=O)N1 (centres undefined)	100
CN(C)C/C=C/C(=O)Nc1ccc(C(=O)Nc2cccc(Nc3nccc(-c4cccnc4)n3)c2)cc1	60
CCN1CCN(Cc2ccc(Nc3ncc4c(n3)N(C)c3ccccc3C(=O)N4C)cc2C(F)(F)F)CC1	12
C=CC(=O)Nc1cc(-n2c(=O)ccc3cnc4ccc(-c5cn[nH]c5)cc4c32)ccc1C	0.45
COc1cc(N2CCN(C)CC2)ccc1Nc1nc(N)c(C(=O)c2c(Cl)cccc2Cl)s1	96

Now look at this entry.
Return the recorded kinase still bound, per cent of control value; entry: "COc1cc2ncnc(Nc3cccc(Cl)c3)c2cc1OC"
46

----------
# measured on: STK24 (human)
# experiment summary: KINOMEscan competition binding
# condition details: compound 10.0 µM
readout label: kinase still bound, per cent of control

These recorded examples may help you get a feel for the data.
N#Cc1c(NC(=O)c2cccc3ccccc23)sc2c1CCCC2 80%
CCCS(=O)(=O)Nc1ccc(F)c(C(=O)c2c[nH]c3ncc(-c4ccc(Cl)cc4)cc23)c1F 77%

Give the measured kinase still bound, per cent of control for "Cc1ccc(NC(=O)c2cccc(C(C)(C)C#N)c2)cc1Nc1ccc2ncn(C)c(=O)c2c1"
79%

For the molecule "CN(C)C/C=C/C(=O)Nc1cccc(Nc2ncc3c(n2)N(C)c2ccccc2C(=O)N3C)c1" , report kinase still bound, per cent of control.
98%

Given the molecule "OCCCNc1cc(-c2ccnc(Nc3cccc(Cl)c3)n2)ccn1" , write its reported kinase still bound, per cent of control.
100%

Annotate the molecule "CCOc1cc2ncc(C#N)c(Nc3ccc(OCc4ccccn4)c(Cl)c3)c2cc1NC(=O)/C=C/CN(C)C" with its measured kinase still bound, per cent of control.
0.35%
